Property: log10 IC50; scope: individual molecules
- Tested on: 3D7-strain P. falciparum asexual parasites
- Test protocol: P. falciparum asexual growth inhibition assay (Pf GIA)
- Format: cell-based, Plasmodium falciparum
- Condition context: dose response confirmation; read-out: Pf asexual growth inhibition assays IC50
Readout name: log10 IC50 (log10 of the value in µM)

1) COc1ccc(Nc2ncc(C#N)c(Nc3ccccc3C(N)=O)n2)cc1N1CCN(C)CC1.Cl: -1.20
2) CCCC(C)n1ccc2c3c(N)nc(N)nc3ccc21 (stereo not drawn): -1.46
3) Cc1ccc2[nH]c(C)c(Br)c(=O)c2c1: 0.58
4) O=c1cc(NCCCN(Cc2ccccc2)Cc2ccccc2)[nH]c2ccccc12: 0.05
5) Cl.OCC(CO)(CO)NCc1ccc2c3c(cccc13)-c1ccccc1-2: 0.29
6) CCOC(=O)c1c(CN2CCCC2)n(-c2ccccc2)c2cc(Br)c(O)cc12: -0.18
7) CCCN1CCN(CCCCNc2c3ccccc3nc3ccccc23)CC1.Cl: -0.62
8) COc1ccc2nccc([C@@H](O)CN3CCC(NCc4cc5c(F)ccc(F)c5[nH]4)CC3)c2c1.O=C(O)C(=O)O: -1.01
9) Nc1nc(N)c2c(ccc3c2ncn3Cc2ccccc2)n1: -0.61
10) O=c1c2ccccc2[nH]c2cc(Cl)ccc12: 0.11
11) Cc1[nH]c2ccc(-c3ccc(N(C)C)cc3)cc2c(=O)c1Cl: -0.64
12) Cl.c1ccc(Oc2ccc(Nc3nncc4ccccc34)cc2)cc1: -0.26
13) Cc1[nH]c(C)c(-c2ccc(-c3ccccc3Cl)nc2)c(=O)c1Br: -1.32
14) COc1ccc(Cl)cc1NC(=O)CN(C)C(=O)c1cnn(-c2ccccc2)n1: -0.65
15) COc1ccc2nccc([C@@H](O)CN3CCC(NCCOc4cc(C(F)(F)F)ccc4F)CC3)c2c1.O=C(O)C(=O)O: -1.46

###

- Test system: P. berghei ookinete development
- Condition context: 1: YES; 0: NO
Readout name: Is compound selective in assay? Pb ODA active?

1) Oc1c(C(Nc2nc3ccccc3s2)c2ccccc2)ccc2cccnc12 (stereo not shown): 0 (0: NO)
2) CN(Cc1cccc(F)c1)C1CCN(c2cc(NC(=O)c3ccc(F)cc3)ccn2)CC1.O=C(O)C(F)(F)F: 0 (0: NO)
3) O=c1cc(NCCCN(Cc2ccccc2)Cc2ccccc2)[nH]c2ccccc12: 1 (1: YES)
4) O=C(O)C(F)(F)F.O=c1[nH]ccc2nc(N[C@@H]3CCCNC3)nc(Nc3ccc(S(=O)(=O)N4CCOCC4)cc3)c12: 1 (1: YES)
5) CC(C)Nc1nc(NC2CCCCC2)nc(N2CCCCCCC2)n1: 1 (1: YES)
6) C=CCc1cc(OC)ccc1OCCCOc1c(C)nc(N)nc1N.Cl: 0 (0: NO)
7) COc1cc(-c2cc(-c3ccc(S(C)(=O)=O)cc3)cnc2N)ccc1O: 1 (1: YES)

###

- Test system: HepG2 cells
- Test protocol: HepG2 cytotoxicity assay
- Condition context: HepG2 cytotoxicity unified across the three screens
Note to self: Unified cytotox under 7 µM means true, ties and anything higher get false.

1) CC(CNC(=N)c1cccc(C(=N)NCC(C)Oc2cccc(C3CCCCC3)c2)n1)Oc1cccc(C2CCCCC2)c1.Cl (centres unmarked): true
2) COc1cc2nc(NCc3cccc(CNC(=O)c4ccc(-c5ccc(C(C)=O)cc5)cc4)c3)nc(N)c2cc1OC.O=C(O)C(F)(F)F: false
3) CC(C)Oc1ccc2ccccc2c1CNCCCCCCNCc1c(OC(C)C)ccc2ccccc12.CS(=O)(=O)O: true
4) CCn1c(Sc2ccc([N+](=O)[O-])c(C#N)c2)nnc1-c1cccc(Cl)c1: false
5) CCC(CSC1CCCCC1)N(C)CCN(C)C(CC)CSC1CCCCC1.Cl (centres unmarked): true
6) COc1ccc(-c2cnc3[nH]cc(-c4ccncc4)c3c2)cc1OC: false
7) Fc1ccc(OC2CN(c3nccc(NCc4ccccc4Cl)n3)C2)cc1: false
8) c1ccc2sc(Sc3ncnc4sccc34)nc2c1: false

###

- Test system: HepG2 cells
- Test protocol: HepG2 cytotoxicity assay
- Condition context: HepG2 cytotoxicity listed with the Pb ODA data set (this manuscript)
Readout name: Pb ODA (this manuscript) HepG2 cytoxicity (µM)

1. CC[C@H]1CN2CCc3cc(OC)c(OC)cc3[C@@H]2C[C@@H]1C[C@H]1NCCc2c1cc(OC)c(O)c2Cl: 4.52
2. Cc1cc2nc(/N=C(\N)NC(=O)NC3CCCCC3)nc(C)c2cc1C: 8.51
3. COc1ccc2ncc(Cl)c(CCN3CCC(NCc4ccc5c(n4)NC(=O)CO5)CC3)c2c1.Cl: 1.29
4. O=c1nc(C=Cc2ccc(Br)cc2)oc2ccccc12: 100.00
5. COc1ccc2nccc(NC(=O)C3(O)CCC(NCc4ccc5c(c4)NCCS5)CC3)c2n1.Cl (stereo not shown): 24.27
6. O=C(c1cc(-c2cccs2)[nH]n1)N1CCN(S(=O)(=O)c2ccc(Cl)cc2)CC1: 42.17
7. O=C(c1cc(-c2ccco2)[nH]n1)N1CCN(S(=O)(=O)c2ccc(Br)cc2)CC1: 100.00
8. COc1ccc2ncc(F)c(NC(=O)C3CCC(NCc4cc5cc(F)cc(F)c5[nH]4)CC3)c2n1.Cl (stereo not shown): 15.49
9. Br.Cc1ccc(OCCCON2C(=N)N=C(N)NC2(C)C)cc1C: 0.001
10. Br.CC(C)(C)c1ccccc1OCCCON1C(=N)N=C(N)NC1(C)C: 0.001

###

- Tested on: P. berghei ookinete development
- Condition context: primary screen at 1 μM, replicate A
Measured % inhibition, Replicate A by item
Readout name: % inhibition, Replicate A (%)

1. Cc1ccc2[nH]c(C)c(Br)c(=O)c2c1: 68.86
2. COc1cc(C(=O)N2CCOC(CCN3CCC(c4ccc(Cl)cc4)CC3)(c3ccc(Cl)c(Cl)c3)C2)cc(OC)c1OC (stereo not shown): 63.32
3. Cc1cc(F)ccc1-c1nc(NCC(O)CNCCc2ccccc2)nc2c1ccc(=O)n2-c1c(F)cccc1F.O=C(O)C(F)(F)F (stereo not shown): 54.07
4. Cc1[nH]c(C)c(-c2ccc(OCc3ccccc3C(F)(F)F)nc2)c(=O)c1Br: 84.05
5. COc1ccc2nccc([C@@H](O)CN3C4CCC3CC(NCc3ccc5c(n3)NC(=O)CS5)C4)c2n1.Cl (stereo partly shown): 46.01
6. CCCCCCCCc1c(C)[nH]c(C)c(Cl)c1=O: 94.00
7. O=C(Nc1ccc(Cl)cc1)N(CC1CC2CCC(C1)N2Cc1ccc(C(F)(F)F)cc1)c1ccc(N2CCOCC2)c(F)c1 (stereo not shown): 55.58
8. Cc1c2ccncc2c(C)c2c1[nH]c1ccccc12: 41.57
9. CC=Cc1cc(Cc2c[nH]c(=N)[nH]c2=N)cc(CCC)c1OC: 54.07
10. CC(Oc1ccc(NC(=O)c2cccs2)cc1)C(=O)c1ccc(Cl)cc1 (stereo not shown): 52.47
11. COc1ccc(C[C@H]2NC[C@H](O)[C@H]2OC(C)=O)cc1: 102.72
12. Cc1nc(C)c(-c2ccc(C(=O)c3ccccc3)cc2)c(O)c1Br: 112.31
13. Cc1cc(Nc2ncc(C#N)c(Nc3ccccc3C(N)=O)n2)ccc1N1CCN(C)CC1.Cl: 100.09
14. O=C(CSc1nn(-c2ccccc2)c(=S)s1)c1c[nH]c2ccccc12: 61.81
15. O=C(c1cccs1)N1CCN(c2ccc([N+](=O)[O-])c(NC3CC3)c2)CC1: 53.49
16. O=C(O)CCSSc1cccc[n+]1[O-]: 62.58

###

- System: P. berghei ookinete development
- Condition context: 1: YES; 0: NO
Readout name: Is compound selective in assay? Pb ODA active?

1) CCN(CC)CCCNc1nccc(N(C)c2ccc(NC(=O)Nc3cc(C(F)(F)F)ccc3F)cc2)n1.O=C(O)C(F)(F)F [TCMDC-141634]: 0 (0: NO)
2) COc1ccc(CCc2ccc(-c3c(C)[nH]c(C)c(Cl)c3=O)cc2)cc1OC [TCMDC-135789]: 1 (1: YES)
3) Cc1ccc(-n2c(Sc3ncnc4sccc34)nnc2N2CCCC2)cc1 [TCMDC-125247]: 1 (1: YES)
4) COc1cc(NC2=NS(=O)(=O)c3cc(Cl)ccc3N2C)cc(OC)c1OC.O=C(O)C(F)(F)F [TCMDC-134208]: 1 (1: YES)
5) Cc1cc2c3c(N)nc(N)nc3ccc2n1C(C)C [TCMDC-137864]: 0 (0: NO)
6) CCCc1cc2c3c(N)nc(N)nc3ccc2n1C(CC)CC [TCMDC-137312]: 0 (0: NO)
7) CCOc1cccc(C(=O)Nc2nonc2-c2ccc(OC)c(OC)c2)c1 [TCMDC-125179]: 0 (0: NO)
8) Cc1nc(C)c(-c2ccc(Oc3ccc(Cl)c(Cl)c3)cc2)c(O)c1Br [TCMDC-137397]: 1 (1: YES)
